B1: UBE2R2 (parent)
chain: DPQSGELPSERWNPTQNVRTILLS

Variants of: B1
Assay: protein stability index of a GFP-peptide fusion (GPS, HEK-293T) (PSI 1-6); higher = more stable;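 further: lentivirally expressed fusions sorted by FACS into six bins by GFP to DsRed ratio, PSI derived from sequencing read proportions per bin multiplied by bin number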
Conditions: c terminus: a fixed tail appended
Tick YES if protein stability index is 4 or greater. Tick NO if protein stability index is less than 4.

mut=S9V group=NO
mut=L7K group=NO
mut=I21P group=YES
mut=T15Q group=NO
mut=S4P group=NO
mut=E6T group=NO
mut=G5W group=NO
mut=P14K group=NO
mut=D1G group=NO
mut=P2I group=NO
mut=L23Q group=YES
mut=E6G group=NO
mut=L7I group=NO
mut=S4M group=NO
mut=R19M group=NO
mut=I21K group=YES
mut=R19W group=NO
mut=R19N group=YES
mut=L22V group=NO
mut=N13M group=NO
mut=E10P group=NO
mut=L7S group=NO
mut=Q16I group=NO
mut=T20F group=NO
mut=T15F group=NO
mut=L23E group=YES
mut=S4L group=NO
mut=L22N group=YES
mut=T20C group=NO
mut=E6N group=NO
mut=R11C group=NO
mut=T20V group=NO
mut=S4Y group=NO
mut=Q16L group=NO
mut=T15A group=NO
mut=V18Y group=NO
mut=E10D group=NO
mut=R11D group=NO
mut=P2W group=NO
mut=T20L group=NO
mut=L22C group=YES
